B1: 2K2A (parent)
chain: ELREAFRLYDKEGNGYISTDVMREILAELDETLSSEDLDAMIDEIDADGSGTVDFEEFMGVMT

Variants of: B1
Experiment: folding stability dG (cDNA display proteolysis); higher = more stable
Details: PBS, room temperature
folding stability dG vs 2 kcal/mol: at or above is true (1), below is false (0).

Input line: Textbook exercise: given the entry `A40S` , state whether its folding stability dG is greater than or equal to 2 kcal/mol.
Output line: false (0)

Input line: Textbook exercise: given the entry `F58V` , state whether its folding stability dG is greater than or equal to 2 kcal/mol.
Output line: false (0)

Input line: Textbook exercise: given the entry `D10E` , state whether its folding stability dG is greater than or equal to 2 kcal/mol.
Output line: false (0)

Input line: Textbook exercise: given the entry `M62I` , state whether its folding stability dG is greater than or equal to 2 kcal/mol.
Output line: false (0)

Input line: Textbook exercise: given the entry `D10N` , state whether its folding stability dG is greater than or equal to 2 kcal/mol.
Output line: false (0)

Input line: Textbook exercise: given the entry `A5H` , state whether its folding stability dG is greater than or equal to 2 kcal/mol.
Output line: false (0)

Input line: Textbook exercise: given the entry `G51W` , state whether its folding stability dG is greater than or equal to 2 kcal/mol.
Output line: false (0)

Input line: Textbook exercise: given the entry `L8V` , state whether its folding stability dG is greater than or equal to 2 kcal/mol.
Output line: true (1)

Input line: Textbook exercise: given the entry `R7P` , state whether its folding stability dG is greater than or equal to 2 kcal/mol.
Output line: false (0)

Input line: Textbook exercise: given the entry `G60F` , state whether its folding stability dG is greater than or equal to 2 kcal/mol.
Output line: true (1)

Input line: Textbook exercise: given the entry `E57Q` , state whether its folding stability dG is greater than or equal to 2 kcal/mol.
Output line: true (1)

Input line: Textbook exercise: given the entry `T32H` , state whether its folding stability dG is greater than or equal to 2 kcal/mol.
Output line: false (0)

Input line: Textbook exercise: given the entry `M59K` , state whether its folding stability dG is greater than or equal to 2 kcal/mol.
Output line: false (0)

Input line: Textbook exercise: given the entry `D30P` , state whether its folding stability dG is greater than or equal to 2 kcal/mol.
Output line: false (0)

Input line: Textbook exercise: given the entry `S18P` , state whether its folding stability dG is greater than or equal to 2 kcal/mol.
Output line: false (0)

Input line: Textbook exercise: given the entry `E44G` , state whether its folding stability dG is greater than or equal to 2 kcal/mol.
Output line: false (0)

Input line: Textbook exercise: given the entry `K11Q` , state whether its folding stability dG is greater than or equal to 2 kcal/mol.
Output line: false (0)

Input line: Textbook exercise: given the entry `D20Y` , state whether its folding stability dG is greater than or equal to 2 kcal/mol.
Output line: false (0)

Input line: Textbook exercise: given the entry `I45H` , state whether its folding stability dG is greater than or equal to 2 kcal/mol.
Output line: false (0)

Input line: Textbook exercise: given the entry `I45L` , state whether its folding stability dG is greater than or equal to 2 kcal/mol.
Output line: false (0)

Input line: Textbook exercise: given the entry `F55V` , state whether its folding stability dG is greater than or equal to 2 kcal/mol.
Output line: false (0)

Input line: Textbook exercise: given the entry `T63I` , state whether its folding stability dG is greater than or equal to 2 kcal/mol.
Output line: true (1)

Input line: Textbook exercise: given the entry `T52V` , state whether its folding stability dG is greater than or equal to 2 kcal/mol.
Output line: false (0)

Input line: Textbook exercise: given the entry `D10Y` , state whether its folding stability dG is greater than or equal to 2 kcal/mol.
Output line: false (0)

Input line: Textbook exercise: given the entry `E24W` , state whether its folding stability dG is greater than or equal to 2 kcal/mol.
Output line: true (1)

Input line: Textbook exercise: given the entry `D20K` , state whether its folding stability dG is greater than or equal to 2 kcal/mol.
Output line: true (1)

Input line: Textbook exercise: given the entry `E28C` , state whether its folding stability dG is greater than or equal to 2 kcal/mol.
Output line: true (1)

Input line: Textbook exercise: given the entry `L2F` , state whether its folding stability dG is greater than or equal to 2 kcal/mol.
Output line: false (0)

Input line: Textbook exercise: given the entry `A5M` , state whether its folding stability dG is greater than or equal to 2 kcal/mol.
Output line: true (1)

Input line: Textbook exercise: given the entry `A5L` , state whether its folding stability dG is greater than or equal to 2 kcal/mol.
Output line: true (1)

Input line: Textbook exercise: given the entry `G15I` , state whether its folding stability dG is greater than or equal to 2 kcal/mol.
Output line: false (0)

Input line: Textbook exercise: given the entry `F58E` , state whether its folding stability dG is greater than or equal to 2 kcal/mol.
Output line: false (0)

Input line: Textbook exercise: given the entry `L29M` , state whether its folding stability dG is greater than or equal to 2 kcal/mol.
Output line: true (1)

Input line: Textbook exercise: given the entry `M41G` , state whether its folding stability dG is greater than or equal to 2 kcal/mol.
Output line: false (0)

Input line: Textbook exercise: given the entry `D39C` , state whether its folding stability dG is greater than or equal to 2 kcal/mol.
Output line: false (0)

Input line: Textbook exercise: given the entry `V61L` , state whether its folding stability dG is greater than or equal to 2 kcal/mol.
Output line: true (1)

Input line: Textbook exercise: given the entry `L38E` , state whether its folding stability dG is greater than or equal to 2 kcal/mol.
Output line: false (0)

Input line: Textbook exercise: given the entry `S50R` , state whether its folding stability dG is greater than or equal to 2 kcal/mol.
Output line: false (0)

Input line: Textbook exercise: given the entry `G13D` , state whether its folding stability dG is greater than or equal to 2 kcal/mol.
Output line: false (0)

Input line: Textbook exercise: given the entry `V21M` , state whether its folding stability dG is greater than or equal to 2 kcal/mol.
Output line: true (1)

Input line: Textbook exercise: given the entry `D10T` , state whether its folding stability dG is greater than or equal to 2 kcal/mol.
Output line: false (0)

Input line: Textbook exercise: given the entry `E56K` , state whether its folding stability dG is greater than or equal to 2 kcal/mol.
Output line: false (0)

Input line: Textbook exercise: given the entry `D43L` , state whether its folding stability dG is greater than or equal to 2 kcal/mol.
Output line: true (1)

Input line: Textbook exercise: given the entry `E1S` , state whether its folding stability dG is greater than or equal to 2 kcal/mol.
Output line: true (1)

Input line: Textbook exercise: given the entry `R7C` , state whether its folding stability dG is greater than or equal to 2 kcal/mol.
Output line: true (1)

Input line: Textbook exercise: given the entry `E57V` , state whether its folding stability dG is greater than or equal to 2 kcal/mol.
Output line: true (1)

Input line: Textbook exercise: given the entry `G51N` , state whether its folding stability dG is greater than or equal to 2 kcal/mol.
Output line: false (0)

Input line: Textbook exercise: given the entry `E57G` , state whether its folding stability dG is greater than or equal to 2 kcal/mol.
Output line: true (1)

Input line: Textbook exercise: given the entry `M41E` , state whether its folding stability dG is greater than or equal to 2 kcal/mol.
Output line: false (0)

Input line: Textbook exercise: given the entry `G15S` , state whether its folding stability dG is greater than or equal to 2 kcal/mol.
Output line: false (0)

Input line: Textbook exercise: given the entry `G60C` , state whether its folding stability dG is greater than or equal to 2 kcal/mol.
Output line: true (1)

Input line: Textbook exercise: given the entry `G13Q` , state whether its folding stability dG is greater than or equal to 2 kcal/mol.
Output line: false (0)

Input line: Textbook exercise: given the entry `R3W` , state whether its folding stability dG is greater than or equal to 2 kcal/mol.
Output line: true (1)

Input line: Textbook exercise: given the entry `S34D` , state whether its folding stability dG is greater than or equal to 2 kcal/mol.
Output line: false (0)

Input line: Textbook exercise: given the entry `M62R` , state whether its folding stability dG is greater than or equal to 2 kcal/mol.
Output line: false (0)

Input line: Textbook exercise: given the entry `Y9A` , state whether its folding stability dG is greater than or equal to 2 kcal/mol.
Output line: false (0)

Input line: Textbook exercise: given the entry `F6W` , state whether its folding stability dG is greater than or equal to 2 kcal/mol.
Output line: true (1)

Input line: Textbook exercise: given the entry `S34I` , state whether its folding stability dG is greater than or equal to 2 kcal/mol.
Output line: false (0)

Input line: Textbook exercise: given the entry `D37V` , state whether its folding stability dG is greater than or equal to 2 kcal/mol.
Output line: false (0)

Input line: Textbook exercise: given the entry `S50F` , state whether its folding stability dG is greater than or equal to 2 kcal/mol.
Output line: false (0)

Input line: Textbook exercise: given the entry `E4V` , state whether its folding stability dG is greater than or equal to 2 kcal/mol.
Output line: false (0)

Input line: Textbook exercise: given the entry `T52N` , state whether its folding stability dG is greater than or equal to 2 kcal/mol.
Output line: false (0)

Input line: Textbook exercise: given the entry `F55A` , state whether its folding stability dG is greater than or equal to 2 kcal/mol.
Output line: false (0)

Input line: Textbook exercise: given the entry `E56P` , state whether its folding stability dG is greater than or equal to 2 kcal/mol.
Output line: false (0)

Input line: Textbook exercise: given the entry `G13P` , state whether its folding stability dG is greater than or equal to 2 kcal/mol.
Output line: false (0)

Input line: Textbook exercise: given the entry `G49V` , state whether its folding stability dG is greater than or equal to 2 kcal/mol.
Output line: false (0)

Input line: Textbook exercise: given the entry `A5R` , state whether its folding stability dG is greater than or equal to 2 kcal/mol.
Output line: true (1)

Input line: Textbook exercise: given the entry `E4T` , state whether its folding stability dG is greater than or equal to 2 kcal/mol.
Output line: false (0)

Input line: Textbook exercise: given the entry `Y9S` , state whether its folding stability dG is greater than or equal to 2 kcal/mol.
Output line: false (0)

Input line: Textbook exercise: given the entry `A27Q` , state whether its folding stability dG is greater than or equal to 2 kcal/mol.
Output line: false (0)

Input line: Textbook exercise: given the entry `E44W` , state whether its folding stability dG is greater than or equal to 2 kcal/mol.
Output line: true (1)

Input line: Textbook exercise: given the entry `T32V` , state whether its folding stability dG is greater than or equal to 2 kcal/mol.
Output line: false (0)

Input line: Textbook exercise: given the entry `A5Y` , state whether its folding stability dG is greater than or equal to 2 kcal/mol.
Output line: true (1)

Input line: Textbook exercise: given the entry `I42G` , state whether its folding stability dG is greater than or equal to 2 kcal/mol.
Output line: false (0)

Input line: Textbook exercise: given the entry `G51M` , state whether its folding stability dG is greater than or equal to 2 kcal/mol.
Output line: false (0)

Input line: Textbook exercise: given the entry `K11F` , state whether its folding stability dG is greater than or equal to 2 kcal/mol.
Output line: false (0)

Input line: Textbook exercise: given the entry `D48W` , state whether its folding stability dG is greater than or equal to 2 kcal/mol.
Output line: false (0)

Input line: Textbook exercise: given the entry `E31A` , state whether its folding stability dG is greater than or equal to 2 kcal/mol.
Output line: true (1)

Input line: Textbook exercise: given the entry `D43T` , state whether its folding stability dG is greater than or equal to 2 kcal/mol.
Output line: false (0)

Input line: Textbook exercise: given the entry `Y16K` , state whether its folding stability dG is greater than or equal to 2 kcal/mol.
Output line: false (0)

Input line: Textbook exercise: given the entry `D20V` , state whether its folding stability dG is greater than or equal to 2 kcal/mol.
Output line: true (1)

Input line: Textbook exercise: given the entry `E56V` , state whether its folding stability dG is greater than or equal to 2 kcal/mol.
Output line: false (0)

Input line: Textbook exercise: given the entry `T32Q` , state whether its folding stability dG is greater than or equal to 2 kcal/mol.
Output line: false (0)

Input line: Textbook exercise: given the entry `L29Q` , state whether its folding stability dG is greater than or equal to 2 kcal/mol.
Output line: false (0)

Input line: Textbook exercise: given the entry `S50Q` , state whether its folding stability dG is greater than or equal to 2 kcal/mol.
Output line: false (0)

Input line: Textbook exercise: given the entry `D37E` , state whether its folding stability dG is greater than or equal to 2 kcal/mol.
Output line: true (1)
